Assay: Selectivity index, ratio of Ki for sigma1 recetor in guinea-pig brain membranes to Ki for sigma2 receptor in rat liver membranes
Format: cell membranes
OBSERVATION_TYPE: Ratio Ki

(A) CCN(CCCCc1cn(-c2ccc(F)cc2)c2ccccc12)Cc1ccc(OC)c(OC)c1
(B) COc1ccc2c(c1OC)CC[C@H]2NCCCCc1cn(-c2ccc(F)cc2)c2ccccc12
(C) COc1cccc(CNCCCCc2cn(-c3ccc(F)cc3)c3ccccc23)c1
Rank descending by Ratio Ki: all 3 compounds from above. Return value: ordered labels per request. C, B, A
(C: 2.4, B: 0.69, A: 0.19)
